Data provenance is patent US8187831B2.

Molecular target: chimeric 3′(2′),5′-bisphosphate nucleotidase (Saccharomyces cerevisiae)
Construct: His6 (C)
Sequence (P32179 other isoform, or with tags, fused parts or gaps): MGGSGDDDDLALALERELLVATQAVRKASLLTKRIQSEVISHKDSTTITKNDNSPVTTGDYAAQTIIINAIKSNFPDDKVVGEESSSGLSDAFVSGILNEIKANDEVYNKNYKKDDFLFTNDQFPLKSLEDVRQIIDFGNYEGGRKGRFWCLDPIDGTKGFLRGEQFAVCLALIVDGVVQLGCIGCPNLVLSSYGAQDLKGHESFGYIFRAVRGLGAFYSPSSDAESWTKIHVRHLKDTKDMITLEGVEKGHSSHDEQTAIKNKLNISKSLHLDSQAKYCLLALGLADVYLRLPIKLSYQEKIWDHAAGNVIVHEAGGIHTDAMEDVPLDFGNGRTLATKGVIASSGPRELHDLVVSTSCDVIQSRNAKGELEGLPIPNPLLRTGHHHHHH
Experiment: biochemical
Design: species or system Saccharomyces cerevisaie
Conditions: read-out: IC50 (nucleotidase activity sensitive to lithium concentration)
Text: Assay Principle. […] Through enzymatic coupling, the phosphatase substrate, adenosine 3′,5′-bisphosphate (PAP) was converted to hypoxanthine by a series of enzymatic reactions to generate uric acid and hydrogen peroxide (H2O2). The H2O2 generated reacted with N-Ethyl-N-(2-hydroxy-3-sulfopropyl)-3-m-toluidine (EHSPT) and 4-aminoantipyrine (4-AA) in the presence of peroxidase (POD) to form a quinone dye which had maximal absorbance at 556 nm. […] Assay Procedure. • 1. […] Calculated ΔA=A2−A1 […]
measured parameter: pIC50
Numbers only, as −log10 of the molar value.

Task: Entry [Li] [lithium, reference compound] : reported pIC50 = ?
Result: 4.00

###

target: chimeric 3′(2′),5′-bisphosphate nucleotidase (Saccharomyces cerevisiae); construct: His6 (C); assay type: biochemical, Saccharomyces cerevisaie; settings: read-out: IC50 (nucleotidase activity sensitive to sodium concentration)
measured parameter: IC50
Phrase the answer as number then unit, nothing more needed.

Task: Entry [Na+] [sodium] : reported IC50 = ?
Result: 20 mM
